The reported numbers originate from ChEMBL document CHEMBL1201862.

# System: RPMI-8226
# procedure.summary: NCI tumour cell line growth inhibition, 48 h
Calls of active or inactive are those of the source. Cut-off read from the data, not from the text of the source: active = GI50 up to about 1.1 µM and inactive = higher.
Labels: active, inactive

# molecule, label.class
rows = [
    ("CCCCCCC(=O)O[C@H]1CC[C@H]2[C@@H]3CCC4C/C(=N/NC(=O)c5cccc6c(=O)c7ccccc7[nH]c56)C=C(C)[C@]4(C)[C@H]3CC[C@]12C (some centres not stated)", "inactive"),
    ("CC(=O)CCC1(c2ccccc2)OC(=O)C(C#N)=C1c1ccccc1 (configuration not stated)", "inactive"),
    ("CC(=O)/C(=C\\c1ccc(Cl)c(Cl)c1)C(=O)C(C)CN(C)C (configuration not stated)", "inactive"),
    ("COCC1C(=O)c2cc3c(cc2C12C=CC1(C=C2)OCCO1)OCO3 (configuration not stated)", "inactive"),
    ("CC(C)[C@@H]1C=C(c2ccccc2)c2ccccc2C1C(C#N)(C#N)C(C)C (some centres not stated)", "inactive"),
    ("Cc1ccc(C(=O)N/N=C2/C(=O)c3c4ccccc4cc4cccc2c34)cc1", "inactive"),
    ("C/C(CC(O)(C(F)(F)F)C(F)(F)F)=N\\NC(N)=O", "inactive"),
    ("CCCCS(=O)(=O)Nc1ccc(Nc2c3ccccc3nc3ccccc23)c(OC)c1", "inactive"),
    ("CC(=O)NC1=C(C)C(=O)c2c(nc3n2CC[C@H]3OC(C)=O)C1=O", "inactive"),
    ("C/C(=N\\NC(=S)N1CC2CCC(CC2)C1)c1cccc(C)n1", "active"),
    ("CCN(CC)CC1CCCCCCCCCCC1=O (configuration not stated)", "inactive"),
    ("C[C@]12C[C@@H](c3ccccc3)Nc3ccccc3N1C(c1ccccc1)=NO2", "inactive"),
    ("O=C(O)c1cc(Sc2ccc([N+](=O)[O-])c(C(=O)O)c2)ccc1[N+](=O)[O-]", "inactive"),
    ("O=S(=O)(N/N=C/c1ccc(Cl)c(Cl)c1)c1ccccc1", "inactive"),
    ("C[N+]1(C(CO)Cc2c[nH]c3ccccc23)Cc2ccccc2C1 (configuration not stated)", "inactive"),
    ("COc1nc2c(c(=O)[nH]1)N=C(c1ccc(Cl)cc1)CC(c1ccccc1)N2 (configuration not stated)", "inactive"),
    ("FC(F)(F)c1ccc2c(c1)N(CCCNCCN1CCOCC1)c1ccccc1S2", "inactive"),
    ("O=[N+]([O-])c1nccn1COCCI", "inactive"),
    ("COC(=O)C1Cc2cc3c(cc2C1)CCC3", "inactive"),
    ("[O-][S+]1c2ccccc2N=C(c2ccc(Cl)cc2)CC1c1cccs1 (configuration not stated)", "inactive"),
    ("c1ccc(/N=C2\\c3ccccc3CN2c2ccccc2)cc1", "inactive"),
    ("COc1ccc(C(C2=C(O)COC2=O)c2cc3c(cc2O)OCO3)cc1OC (configuration not stated)", "inactive"),
]

###

# Test system: UACC-62
# procedure.summary: NCI tumour cell line growth inhibition, 48 h
Activity calls are given as the source filed them. No stated cut-off is given here; in the data, active = GI50 up to about 1.1 µM and inactive = higher.
Classes used: 1 = active, -1 = inactive

# compound, label.class
records = [
    ("Cc1cc(O)nc(NN2C(Cl)C(=O)C2c2ccc(Cl)cc2)n1 (stereo not given)", -1),
    ("C=C(Br)C(C)(Cl)CCC(Br)C(C)(C)Cl (stereo not given)", -1),
    ("O=C(O/C=C\\OC1CCCC1(c1ccccc1)c1ccccc1)c1ccccc1 (stereo not given)", -1),
    ("COc1cc(C2c3cc4c(cc3OC(Nc3ccccc3)C2C)OCO4)cc(OC)c1OC (stereo not given)", 1),
    ("CC(C)(CO[C@H]1C[C@H]2CC[C@@]1(C)C2(C)C)[N+](=O)[O-]", -1),
    ("COc1ccc(OC)c2sc(N3C(=O)/C(=C/c4ccc(N(C)C)cc4)N=C3c3ccccc3)nc12", -1),
    ("COC(=O)NNc1c([N+](=O)[O-])cnn(-c2ccccc2)c1=O", -1),
    ("C/C1=C\\C=C(\\C(C)C)CC/C(C(=O)O)=C\\CC/C(C)=C/CC1 [NEOCROTOCEMBRANEIC ACID]", -1),
    ("CCN1CCC(O)(c2ccc(Oc3ccc(C)cc3)cc2)C(C(=O)c2ccc(Oc3ccc(C)cc3)cc2)C1 (stereo not given)", -1),
    ("CCOC(=O)C(=C=C=C(c1ccccc1)c1ccccc1)C(=O)OCC", -1),
]

###

# Tested on: UACC-62
# procedure.summary: NCI tumour cell line growth inhibition, 48 h
Activity calls are given as the source filed them. Rule as the data show it: active = GI50 up to about 1.1 µM and inactive = higher.
Possible outcomes: active, inactive

# molecule, label.class
data = [
    ("C[N+]1(C(CO)Cc2c[nH]c3ccccc23)Cc2ccccc2C1 (configuration not stated)", "inactive"),
    ("COC1=C(OC)C(=O)C(Cc2c(-c3ccccc3)nc3sc(Cl)cn23)=C(C)C1=O", "inactive"),
    ("Cc1nc2ccc(S(=O)(=O)NS(=O)(=O)c3ccc(-c4ccccc4)cc3)cc2c(=O)n1NS(=O)(=O)c1ccc(-c2ccccc2)cc1", "inactive"),
    ("Nc1ccc(C2NC(=O)Cc3c2ccc2ccccc32)cc1 (configuration not stated)", "inactive"),
    ("C=C1C[C@]23CC[C@@H]4C(CO)(CO)CC(=O)C[C@]4(C)[C@@H]2CC[C@H]1C3", "inactive"),
    ("CCOC(=O)Cc1[nH]c(C(=O)c2ccccc2)cc1C(=O)c1ccccc1", "inactive"),
    ("CCCCS(=O)(=O)Nc1ccc(Nc2c3ccccc3nc3ccccc23)c(OC)c1", "inactive"),
    ("O=C(CCN1CCN2c3ccccc3CCC2C1)c1ccc(F)cc1 (configuration not stated)", "inactive"),
    ("COc1nc2c(c(=O)[nH]1)N=C(c1ccc(Cl)cc1)CC(c1ccccc1)N2 (configuration not stated)", "inactive"),
    ("C[C@]12CCC3c4ccc(O)cc4CC[C@H]3C1CC(=O)N(CCN1CCCC1)C2=O (some centres not stated)", "inactive"),
    ("C=C1C(=O)C23C(O)C1CC[C@H]2C12CCCC(C)(COC(C)=O)[C@H]1[C@H](O)[C@]3(O)OC2 (some centres not stated)", "inactive"),
    ("CC1=NNC(=O)C1C1CC(c2c[nH]c3ccccc23)=NNC1=S (configuration not stated)", "inactive"),
    ("c1cnc2nc3n(c2c1)CSC3", "inactive"),
    ("CSc1c([S+](C)[O-])[nH]c2cc(Br)cc(Br)c12 (configuration not stated)", "inactive"),
    ("C/C(=N\\NC(=S)N1CC2CCC(CC2)C1)c1cccc(C)n1", "active"),
    ("COc1cccc(C2c3cc4c(cc3OC(N3CCCCC3)C2C)OCO4)c1O (configuration not stated)", "inactive"),
    ("COc1ccc(N2C(=O)C3c4[nH]c5c(C)cccc5c4C4CCC(C(C)C)CC4C3C2=O)cc1 (configuration not stated)", "inactive"),
    ("Cc1cc(S(=O)(=O)Nc2nc3cccnc3[nH]2)c(S)cc1Cl", "inactive"),
    ("CC(=O)Nc1ccc(NS(=O)(=O)c2ccc3nc(C)n(NS(=O)(=O)c4ccc(NC(C)=O)cc4)c(=O)c3c2)cc1", "inactive"),
    ("CCOC(=O)CC1=Nc2ccccc2SC1", "inactive"),
    ("O=C(O)CSc1nc2ccccc2[nH]1", "inactive"),
    ("CCSc1nnc(CSc2nc(-c3ccccc3)c(-c3ccccc3)[nH]2)n1-c1ccccc1", "inactive"),
    ("COc1cc2c(cc1OC)C(=O)/C(=C/c1ccc(N(C)C)cc1)CC2", "inactive"),
    ("O=[N+]([O-])c1nccn1COCCI", "inactive"),
    ("CCOc1cc(C2CC(c3ccc(NS(=O)(=O)c4cc([N+](=O)[O-])ccc4C)cc3)=NN2)ccc1O (configuration not stated)", "inactive"),
    ("COC(=O)C1Cc2cc3c(cc2C1)CCC3", "inactive"),
    ("N#Cc1ccsc1Nc1ccccc1[N+](=O)[O-]", "inactive"),
    ("O=S1(=O)N=C(SCc2c[nH]c3ccccc23)N(c2ccccc2)c2ccncc21", "inactive"),
    ("Cc1ccc(C(=O)N/N=C2/C(=O)c3c4ccccc4cc4cccc2c34)cc1", "inactive"),
    ("CCOC(=O)c1csc(NC(=O)C(C)N2CCCC2)n1 (configuration not stated)", "inactive"),
    ("COc1ccc(NC(=O)CC/C(CC(=O)c2ccco2)=N/NC(=O)C(N)=O)cc1", "inactive"),
    ("CC(C)CC(=O)NC(Nc1ccc(S(=O)(=O)Nc2ncccn2)cc1)(C(F)(F)F)C(F)(F)F", "inactive"),
    ("CC(=O)C1C(=O)C(=O)N(CCN2C(=O)C(=O)C(C(C)=O)C2=O)C1=O (configuration not stated)", "inactive"),
    ("COc1ccccc1CC(C)N (configuration not stated)", "inactive"),
    ("CCOC(=O)CNC(=O)C(C)NC(=O)C(NC(=O)CC(c1ncc[nH]1)c1ncc[nH]1)C(C)CC (configuration not stated)", "inactive"),
    ("COc1ccc2c(c1)CCCN2CCCCCCCCCCN(CCC(C)C)CCC(C)C", "inactive"),
    ("COC(=O)C1C2C=CC(C2)C1(C(=O)OC)[S+]([O-])CC12CCC(CC1O)C2(C)C (configuration not stated)", "inactive"),
    ("C[N+]12C=CC=C1C(N1CCCC1)c1sc(-c3ccc(Cl)cc3)cc12 (configuration not stated)", "inactive"),
    ("CCC(=O)NCC1(c2c[nH]c3ccccc23)SCCS1", "inactive"),
    ("O=C(NN=C1NCCCCN1)Nc1ccc(Cl)cc1", "inactive"),
    ("CC(C)(C)c1cc(C(=O)/C=C/C=C/c2ccccc2)cc(C(C)(C)C)c1O", "inactive"),
    ("CC1=C[P+](Cc2ccccc2)(c2ccccc2)CC1 (configuration not stated)", "inactive"),
]
